Experiment description: reversal of MRP1-mediated doxorubicin resistance, pilot screen, H69AR cells, doxorubicin co-treatment (AID 601)
Applied conditions: H69AR cells + 2 uM doxorubicin, CellTiter-Glo, 72 h; measured here: viability with 2 uM doxorubicin; at 10 µM; stronger effect = lower value
So basically: is viability under 90%? Then satisfied. Not under? Then not satisfied.

Input smiles: CCOC(=O)c1c(C)[nH]c(C)c1C(=O)COc1ccc(NC(=O)c2ccco2)cc1
Classification: not satisfied

Input smiles: COc1ccc(S(=O)(=O)n2nc(OC(=O)c3ccc(C)cc3)cc2N)cc1
Classification: not satisfied

Input smiles: O=C(NCc1ccccc1)N1CCn2c(nc3ccccc32)C1
Classification: satisfied

---

Experiment description: reversal of MRP1-mediated doxorubicin resistance, pilot screen, H69AR cells, doxorubicin co-treatment (AID 601)
Applied conditions: H69AR cells + 2 uM doxorubicin, CellTiter-Glo, 72 h; measured here: viability with 2 uM doxorubicin; at 10 µM; stronger effect = lower value
Reported viability values for a set of compounds

Compound: CC1=C(C(=O)OCc2ccccc2)C(c2ccc(C)o2)C2=C(CCCC2=O)N1 (stereo unspecified)
Uom: %
viability: 89.1

Compound: c1ccc(-c2nnc(OCCN3CCOCC3)c3ccccc23)cc1
Uom: %
viability: 89.9

Compound: C=C(C)Cn1c(N2CCN(CC)CC2)nc2c1c(=O)[nH]c(=O)n2C
Uom: %
viability: 87.5

Compound: CCOc1ccccc1NC(=O)N1CCCC1C(=O)Nc1nnc(CC)s1 (stereo unspecified)
Uom: %
viability: 88.8

Compound: CCCCn1c(=O)[nH]c(=O)c2c1nc(-c1ccncc1)n2CCOC
Uom: %
viability: 92.2

Compound: Cc1cccc(NC(=O)COc2ccc(Br)cc2)n1
Uom: %
viability: 92.4

---

Assay system: Receptor tyrosine-protein kinase erbB-2 (Homo sapiens)
Experiment description: reducers of endogenous Her2 protein level, primary screen, SKBR3 breast tumor cells, AlphaScreen, ATP viability (AID 461);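 also: lower value means less Her2 protein in the cells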
Applied conditions: 18-24 h, at 10 µM, stronger effect = lower value

Molecule: CCOc1ccc(NC(=O)CSc2nnc(Cc3cccn3C)n2-c2ccc(OC)cc2)cc1
Her2 level / %: 81

Molecule: CC(C)(C)NC(=O)Cn1nnnc1-c1nonc1N
Her2 level / %: 94.5

Molecule: CCOc1ccc(CN2CCN(c3cc(C)nc4c5c(C)cc(C)nc5nn34)CC2)cc1
Her2 level / %: 83.5

Molecule: CCc1cccc2c(=O)c(C(=O)N3CCCCCC3)c[nH]c12
Her2 level / %: 102

Molecule: CCOC(=O)N1CCC(NC(=O)c2ccc3c(c2)N(C)CCS3)CC1
Her2 level / %: 92.5

Molecule: CC1Oc2ccccc2N(CC(=O)N(Cc2ccccc2)Cc2ccccn2)C1=O (configuration not stated)
Her2 level / %: 100

Molecule: c1ccc2c(c1)Cn1c-2nc2ccccc21
Her2 level / %: 95

Molecule: CC(=O)Nc1ccc(S(=O)(=O)N2CCN=C2C)cc1
Her2 level / %: 95

Molecule: Cc1ccc(S(=O)(=O)N[C@@H](C)C(=O)N2CCC(C(=O)N3CCC[C@H]3C(=O)O)CC2)cc1
Her2 level / %: 100

Molecule: COCCCNC(=O)C1CCCN(C(=O)Nc2ccc(OC)cc2)C1 (configuration not stated)
Her2 level / %: 89

Molecule: Cc1cc(/C=N/n2cnnc2)c(C)n1-c1ccc(Cl)cc1Cl
Her2 level / %: 64.5

Molecule: CCN(CC)C(=O)c1sc(NC(=O)c2ccco2)c(C#N)c1C
Her2 level / %: 103

Molecule: O=C(NCc1cccs1)C1CCN(S(=O)(=O)c2cccs2)CC1
Her2 level / %: 89

Molecule: CCSc1nnc(NC(=O)CSc2ncccn2)s1
Her2 level / %: 102

Molecule: CSc1nc(C)cc(OCC(=O)N2CCOCC2)n1
Her2 level / %: 112

Molecule: N#Cc1c(NC(=O)CSc2nc(N)cc(=O)[nH]2)sc2c1CCCCCC2
Her2 level / %: 90

Molecule: CCOc1cc(NC(=O)c2ccco2)c(OCC)cc1NC(=O)CCC(=O)NCc1cccnc1
Her2 level / %: 100

Molecule: CCCC(=O)N(Cc1cc2ccccc2[nH]c1=O)c1ccccc1OC
Her2 level / %: 94.5

Molecule: CCOC(=O)CNC(=O)c1c(C)nn(-c2ccccc2)c1Cl
Her2 level / %: 86.5

Molecule: CCOC(=O)CSC1=C(C#N)C(=O)NC2(CCCCC2)S1
Her2 level / %: 106

Molecule: CCN(CC)S(=O)(=O)c1ccc(C(=O)Oc2ccc3c(c2)OCO3)cc1
Her2 level / %: 84

Molecule: Cc1cc(NCCN2CCCCC2)n2c(nc3ccccc32)c1C#N
Her2 level / %: 65.5

Molecule: COC(=O)Cn1c2c(c3cc(C)ccc31)CCCC2
Her2 level / %: 99

Molecule: CCCCC(=O)NCCNc1nc2c(c(=O)n(C)c(=O)n2C)n1Cc1ccccc1
Her2 level / %: 83

Molecule: O=C1CCNc2cc3ccccc3cc21
Her2 level / %: 84

Molecule: CCCn1c(N2CCN(CC(=O)Nc3ccc4c(c3)OCCO4)CC2)nc2ccccc21
Her2 level / %: 96

Molecule: COC(=O)c1cc(Br)c(=O)n(CCC2=CCCCC2)c1
Her2 level / %: 99.5

Molecule: CCCc1cc(=O)n2[nH]c(-c3ccc(Br)cc3)cc2n1
Her2 level / %: 71.5

Molecule: Cc1nc2sc(C(c3cccc(F)c3)N3CCCCC3)c(O)n2n1 (configuration not stated)
Her2 level / %: 80

Molecule: O=C(OCC(=O)N1CCc2ccccc21)C1=COCCO1
Her2 level / %: 90

Molecule: COCCn1c(SCC(=O)Nc2nnc(C)s2)nnc1-c1c[nH]c2ccccc12
Her2 level / %: 84

Molecule: CCCNc1nc2c(c(=O)n(C)c(=O)n2C)n1Cc1cccc(C)c1
Her2 level / %: 85

Molecule: O=C(CSc1nnc(-c2ccccc2F)o1)OCc1ccccc1
Her2 level / %: 88.5

Molecule: CCc1ccc2c(CN(CC)Cc3nc4ccccc4c(=O)[nH]3)cc(=O)oc2c1
Her2 level / %: 73.5

Molecule: CCOC(=O)c1ccccc1NC(=O)N1CCn2c(C)ccc2C1CC (configuration not stated)
Her2 level / %: 88

Molecule: CCCCc1ccc(NC(=O)c2c(C)noc2C)cc1
Her2 level / %: 94.5

Molecule: CC(C)COc1ccc(C2NC(=O)NC2=O)cc1 (configuration not stated)
Her2 level / %: 106

Molecule: CCN(CCNC(=O)C1CCN(S(=O)(=O)CC)CC1)c1ccccc1
Her2 level / %: 92.5

Molecule: O=C(O)C1CC(=O)N(c2ccc(Br)cc2)C1 (configuration not stated)
Her2 level / %: 122

Molecule: CC(C)C1Cc2c(C#N)c(N)sc(=S)c2CO1 (configuration not stated)
Her2 level / %: 108

Molecule: COc1ccccc1C1/C(=C(\O)c2c(C)nc3c(C)cccn23)C(=O)C(=O)N1CCCN(C)C (configuration not stated)
Her2 level / %: 79.5

Molecule: CCSc1nnc(NC(=O)CSc2nnc(Cc3cccn3C)n2-c2ccc(C)cc2)s1
Her2 level / %: 108

// provenance: PubChem BioAssay
